- EXPERIMENTAL TARGET: UniProt:P13569
- Sequence (P13569 with tags, fused parts or gaps DEL508-508): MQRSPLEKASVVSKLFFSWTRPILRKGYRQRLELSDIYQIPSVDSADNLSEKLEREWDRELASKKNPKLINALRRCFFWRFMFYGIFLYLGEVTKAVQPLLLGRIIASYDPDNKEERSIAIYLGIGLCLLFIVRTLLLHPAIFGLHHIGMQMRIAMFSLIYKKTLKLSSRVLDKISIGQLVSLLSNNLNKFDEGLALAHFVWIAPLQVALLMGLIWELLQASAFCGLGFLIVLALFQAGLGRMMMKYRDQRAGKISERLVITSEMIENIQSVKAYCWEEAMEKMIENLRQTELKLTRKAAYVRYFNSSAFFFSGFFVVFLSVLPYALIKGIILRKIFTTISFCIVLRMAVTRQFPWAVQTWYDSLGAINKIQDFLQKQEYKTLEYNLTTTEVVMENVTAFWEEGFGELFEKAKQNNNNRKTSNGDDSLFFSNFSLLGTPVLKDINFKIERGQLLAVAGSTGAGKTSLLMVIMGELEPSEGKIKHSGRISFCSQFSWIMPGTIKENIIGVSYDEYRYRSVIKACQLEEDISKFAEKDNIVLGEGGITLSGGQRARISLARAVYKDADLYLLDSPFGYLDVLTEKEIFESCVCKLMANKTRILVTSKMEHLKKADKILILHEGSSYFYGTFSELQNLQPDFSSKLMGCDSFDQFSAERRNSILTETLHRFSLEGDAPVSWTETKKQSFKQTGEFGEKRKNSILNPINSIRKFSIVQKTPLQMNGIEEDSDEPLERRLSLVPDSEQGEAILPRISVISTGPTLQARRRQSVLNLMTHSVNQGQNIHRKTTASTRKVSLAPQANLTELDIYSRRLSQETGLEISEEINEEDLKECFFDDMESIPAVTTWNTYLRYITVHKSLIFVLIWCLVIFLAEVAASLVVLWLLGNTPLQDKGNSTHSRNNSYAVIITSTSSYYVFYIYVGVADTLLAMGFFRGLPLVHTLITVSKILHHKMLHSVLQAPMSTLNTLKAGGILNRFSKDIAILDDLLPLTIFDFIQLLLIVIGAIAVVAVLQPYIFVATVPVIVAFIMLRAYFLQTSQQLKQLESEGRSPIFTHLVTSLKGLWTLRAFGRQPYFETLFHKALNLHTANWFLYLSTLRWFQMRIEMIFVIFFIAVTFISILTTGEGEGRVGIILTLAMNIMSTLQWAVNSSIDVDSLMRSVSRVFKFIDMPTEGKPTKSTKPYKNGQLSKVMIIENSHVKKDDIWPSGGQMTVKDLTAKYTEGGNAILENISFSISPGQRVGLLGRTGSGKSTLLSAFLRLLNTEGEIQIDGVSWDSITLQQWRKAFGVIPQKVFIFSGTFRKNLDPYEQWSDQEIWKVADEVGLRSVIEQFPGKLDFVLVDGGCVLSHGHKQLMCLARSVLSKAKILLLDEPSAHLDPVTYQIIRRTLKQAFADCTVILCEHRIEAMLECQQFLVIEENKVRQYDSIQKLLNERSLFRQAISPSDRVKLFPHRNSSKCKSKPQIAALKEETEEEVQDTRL
- PROTOCOL DETAILS: Membrane Potential Dye, Enteroid Assay B
- Assay type: cell-based
- MEASUREMENT PARAMETERS: Table 9; read-out: Ent. B EC50
RECORDED METRIC: EC50

molecule="Cc1cccc(C)c1-c1cc2nc(n1)NS(=O)(=O)c1cccc(c1)C(=O)N[C@@H](C(CC(C)C)c1ccccc1)CO2 (stereo in doubt) [Compound 181]" recorded_value="< 1 µM"
molecule=Cc1cccc(CC2CCCCC2)c1-c1cc2nc(n1)NS(=O)(=O)c1cccc(c1)C(=O)N[C@H](CC(C)C)CO2 recorded_value="< 1 µM"
molecule=O=C1N[C@@H]2CCCCCCCc3ccccc3-c3cc(nc(n3)NS(=O)(=O)c3cccc1c3)OC2 recorded_value="< 1 µM"
molecule="Cc1cccc(C)c1-c1cc2nc(n1)NS(=O)(=O)c1cc(n(C)n1)C(=O)N[C@H](C)C(c1ccc(C(C)(C)C)cc1)O2 (stereo in doubt)" recorded_value="< 1 µM"
molecule="Cc1cccc(C)c1-c1cc2nc(n1)NS(=O)(=O)c1cccc(c1)C(=O)N[C@H](C)[C@H](C)O2 [Compound 484]" recorded_value="3 to 30 µM"
molecule=Cc1cccc(C)c1-c1cc2nc(n1)NS(=O)(=O)c1cc(no1)C(=O)N[C@H](CC(C)(C)C)CO2 recorded_value="1 to 3 µM"
molecule=Cc1cccc(C)c1-c1cc2nc(n1)NS(=O)(=O)c1cc(n(C)n1)C(=O)NCC(CC(C)C)(CC(C)C)CO2 recorded_value="1 to 3 µM"
molecule=O=C1N[C@@H]2CCCC/C=C/c3ccccc3-c3cc(nc(n3)NS(=O)(=O)c3cccc1c3)OC2 recorded_value="< 1 µM"
molecule=Cc1cccc(/C=C/C2CC2)c1-c1cc2nc(n1)NS(=O)(=O)c1cccc(c1)C(=O)N[C@H](CC(C)C)CO2 recorded_value="< 1 µM"
molecule=Cc1cccc(C)c1-c1cc2nc(n1)NS(=O)(=O)c1cccc(c1)C(=O)NC[C@@H](c1ccc(CCC3(C(F)(F)F)CC3)cc1)O2 recorded_value="< 1 µM"

**Query** What measured EC50 is associated with `Cc1cccc(C)c1-c1cc2nc(n1)NS(=O)(=O)c1cccc(c1)C(=O)N[C@H](CC(C)(C)O)CO2` on UniProt:P13569?
**Result** 3 to 30 µM

**Query** What measured EC50 is associated with `Cc1cccc(C=C2CCCCC2)c1-c1cc2nc(n1)NS(=O)(=O)c1cccc(c1)C(=O)N[C@H](CC(C)C)CO2` on UniProt:P13569?
**Result** < 1 µM
